All values here come from ChEMBL document CHEMBL1147535.

This section lists pKi readings for Glucagon receptor (Homo sapiens, UniProt P47871).
pKi: −log10 of the molar value.
experimental-readout: pKi

The cases that follow already have their pKi on record.
INSERT INTO measurements (molecule, experimental_readout, result) VALUES
  ('CC(C)(C)c1ccc(C(Cc2ccc(C(=O)NCCC(=O)O)cc2)C(=O)Nc2ccc(-n3cccn3)cc2)cc1 (configuration not stated)', 'pKi', 7.15),
  ('CCCCCCC(Oc1ccc(C(=O)NCCC(=O)O)cc1)C(=O)Nc1ccc(-c2ccc(Cl)cc2Cl)cc1 (configuration not stated)', 'pKi', 8.22),
  ('CC(C)(C)c1ccc(C(Cc2ccc(C(=O)NCCC(=O)O)cc2)C(=O)Nc2ccc(N3CCCCC3)cc2)cc1 (configuration not stated)', 'pKi', 7.14);

1: CC(C)(C)c1ccc(C(Cc2ccc(C(=O)NCCC(=O)O)cc2)C(=O)Nc2ccc(COC(F)(F)F)cc2)cc1 (configuration not stated)
2: CC(C)(C)c1ccc(C(Oc2ccc(C(=O)NCC(O)C(=O)O)cc2)C(=O)Nc2ccc(-c3ccccc3)cc2)cc1 (configuration not stated)
3: CC(C)(C)c1ccc(C(Cc2ccc(C(=O)NCCC(=O)O)cc2)C(=O)Nc2ccc(-c3cc4ccccc4o3)cc2)cc1 (configuration not stated)
Request: Sort by pKi, descending. To answer, write out the labels according to the requested order.
Result: 3, 2, 1
(3: 8.40, 2: 6.95, 1: 5.30)
